# TGT: Nuclear receptor subfamily 1 group I member 2 (Homo sapiens, UniProt O75469)
# Sequence (O75469 whole entry, the tested form may be a part): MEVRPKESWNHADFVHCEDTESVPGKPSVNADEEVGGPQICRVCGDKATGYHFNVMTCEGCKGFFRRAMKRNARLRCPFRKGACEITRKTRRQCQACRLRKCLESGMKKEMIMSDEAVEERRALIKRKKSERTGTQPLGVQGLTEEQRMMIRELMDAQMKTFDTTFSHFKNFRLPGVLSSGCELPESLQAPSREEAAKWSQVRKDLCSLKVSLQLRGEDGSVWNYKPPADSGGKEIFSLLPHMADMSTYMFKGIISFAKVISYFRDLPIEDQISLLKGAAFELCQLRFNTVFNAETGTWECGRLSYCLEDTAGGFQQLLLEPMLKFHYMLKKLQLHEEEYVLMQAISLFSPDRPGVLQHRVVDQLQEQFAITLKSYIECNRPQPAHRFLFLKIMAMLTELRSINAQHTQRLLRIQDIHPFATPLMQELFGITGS
# ASSAY: Inhibition of Gal4-tagged PXR LBD (unknown origin) by cell based luciferase reporter gene assay
pIC50: −log10 of the molar value.
MEASURED ENDPOINT: pIC50

compound="Cc1c(C2(C(F)(F)F)CC2)nc(C2CC2)n1-c1c(Cl)ccc(N2CC3(CC(C(=O)O)C3)C2)c1Cl (single isomer, unassigned; atropisomer)" measured_endpoint=pIC50 endpoint_result="< 5.00"

* * *

// reported microsomal CLint per item
# ASSAY: Intrinsic clearance in rat liver microsomes
# Assay type: ADME, Microsome
# MEASUREMENT CONDITIONS: read-out: CLH
MEASURED ENDPOINT: microsomal CLint

compound=Cc1c(C(F)(F)F)nc(-c2ccc(Cl)o2)n1-c1c(Cl)cccc1Cl endpoint_result="722 µL/min/mg"
compound=CC(C)Cc1cn(-c2c(C#N)cccc2C#N)c(-c2cnco2)n1 endpoint_result="153 µL/min/mg"
compound="Cc1c(CC(C)C)nc(-c2ccc(Cl)o2)n1-c1c(Cl)ccc(N2CC(C(=O)O)C2)c1Cl (single isomer, unassigned; atropisomer)" endpoint_result="222 µL/min/mg"
compound=N#Cc1cccc(C#N)c1-n1cc(C2CC2)nc1-c1cnco1 endpoint_result="33 µL/min/mg"
compound=Cc1c(C(F)(F)F)nc(-c2ccc(Cl)o2)n1-c1c(Cl)ccc(N2CC(c3nnn[nH]3)C2)c1Cl endpoint_result="49 µL/min/mg"
compound="Cc1c(C(F)(F)F)nc(-c2ccc(Cl)o2)n1-c1c(Cl)ccc(N2CC(C(=O)O)C2)c1Cl (single isomer, unassigned; atropisomer)" endpoint_result="56 µL/min/mg"
compound=Cc1c(CC(C)C)nc(-c2ccco2)n1-c1c(Cl)cccc1Cl endpoint_result="693 µL/min/mg"
compound="Cc1c(C(F)(F)F)nc(-c2ccc(Cl)o2)n1-c1c(Cl)ccc(N2CC(C(N)=O)C2)c1Cl (single isomer, unassigned; atropisomer)" endpoint_result="169 µL/min/mg"
